Tested on: COLO 205 colon
Test: NCI-60 one-dose screen, 48 h
Conditions: 10 µM unless noted
The panel holds about 83,000 compounds, 20% with a hit somewhere; the sample as a whole holds those more often. Activity calls are given as the source filed them. How the source made its calls: active means growth percent below 10; inactive means the rest.
Outcomes you can answer with include only these: active, inactive

// below: answered compounds
compound: COc1ccc(-c2cc(-c3cccc4ccccc34)n3c(n2)nc2ccccc23)cc1OC
assigned_category: inactive
--
compound: Cc1ccccc1NC1CC(=O)N(c2ccc(Cl)cc2Cl)C1=O (configuration not stated)
assigned_category: inactive
--
compound: CN1CCN(c2nc(-c3csc(-c4ccncc4)n3)cc3ccccc23)CC1
assigned_category: inactive
--
compound: O=C(CSc1ccc(-c2nc3ccccc3[nH]2)cn1)N1CCN(c2ccccc2F)CC1
assigned_category: inactive
--
compound: COc1ccc(-c2nc(SCC(C)C)nc(N/N=C\c3cccc([N+](=O)[O-])c3)c2C#N)cc1
assigned_category: inactive
--
compound: O=C1[C@H]2Cc3c([nH]c4ccccc34)[C@@H](c3c(Cl)cccc3Cl)N2C(=O)CN1C1CCN(Cc2ccccc2)CC1
assigned_category: inactive
--
compound: O=C1/C(=C/c2ccc([N+](=O)[O-])cc2)SC(=Nc2ccccc2)N1Nc1ccccc1
assigned_category: inactive
--
compound: O=C(Nc1cc(Cl)cc(Cl)c1)Nc1nc2ccc([N+](=O)[O-])cc2s1
assigned_category: active
--
compound: O=C(Cn1cc(CN2C(=O)c3ccc([N+](=O)[O-])cc3C2=O)nn1)Nc1ccccc1Br
assigned_category: inactive
--
compound: CCC(=O)Nc1cc(Nc2cc(NC3CC3)n3ncc(C#N)c3n2)ccc1C
assigned_category: inactive

Asked: Hi team, can someone confirm the assay call for "Cn1ccnc1C(=O)/C=C/c1ccc(C(=O)Nc2ccc(NC(=O)CCNC(=O)c3csc(Br)n3)cc2)cc1" ?
Given back: inactive

Asked: Returns: the outcome recorded for "Cc1ccc(-c2nnc3sc(C4=Cc5ccccc5OC=C4)nn23)cc1" in this assay.
Given back: inactive

Asked: Call for entry CC(C)(C)n1nnnc1C(Nc1nccs1)c1cc2cccc3ccc4cccc1c4c32 (configuration not stated) :
Given back: inactive

Asked: # fetch the recorded call for "CN1CCN(Cc2ccc(NC(=O)c3cncc(C#Cc4cnc5ccc(NC6CCOCC6)nn45)c3)cc2C(F)(F)F)CC1" here
Given back: active
